- assay-procedure: Biodistribution, CHO-K1-GRPR + CHO-K1-PSMA dual xenograft mice
- run-parameters: female, NOD SCID, mouse, CHO-K1-GRPR tumor, intravenous, 0.58 nmol, total radioactivity, Biodistribution: CHO-K1-GRPR Tumor, Mouse #4; single tracer; dual xenograft; 24.2 h p.i.; 0.58 nmol
parameter: tissue uptake at 24.2 h (%ID/g)
Answers are plain numbers, in %ID/g.

-- ask Field request: tissue uptake at 24.2 h | item: CC(C)C[C@H](NC(=O)C[C@H](O)[C@H](CC(C)C)NC(=O)[C@H](Cc1c[nH]cn1)NC(=O)CNC(=O)[C@@H](NC(=O)[C@H](C)NC(=O)[C@H](Cc1c[nH]c2ccccc12)NC(=O)[C@H](CCC(N)=O)NC(=O)[C@@H](Cc1ccccc1)NC(=O)CN1CCC(NC(=O)CN2CCN(CC(=O)O)CCN(CC(=O)O)CCN(CC(=O)O)CC2)CC1)C(C)C)C(N)=O [[^111In]In-RM2, metal not drawn]
-- reply 0.28

###

- assay-procedure: Biodistribution, CHO-K1-GRPR + CHO-K1-PSMA dual xenograft mice
- run-parameters: female, NOD SCID, mouse, CHO-K1-GRPR xenograft tumor, intravenous, total radioactivity, Uptake in CHO-K1-GRPR xenografts, single-tracer mice #4–#7; range
parameter: tissue uptake

-- ask Which measured tissue uptake value corresponds to CC(C)C[C@H](NC(=O)C[C@H](O)[C@H](CC(C)C)NC(=O)[C@H](Cc1c[nH]cn1)NC(=O)CNC(=O)[C@@H](NC(=O)[C@H](C)NC(=O)[C@H](Cc1c[nH]c2ccccc12)NC(=O)[C@H](CCC(N)=O)NC(=O)[C@@H](Cc1ccccc1)NC(=O)CN1CCC(NC(=O)CN2CCN(CC(=O)O)CCN(CC(=O)O)CCN(CC(=O)O)CC2)CC1)C(C)C)C(N)=O [[^111In]In-RM2, metal not drawn] ?
-- reply 0.06 to 0.51 %ID/g

###

- assay-procedure: Biodistribution, CHO-K1-GRPR + CHO-K1-PSMA dual xenograft mice
- run-parameters: female, NOD SCID, mouse, heart, intravenous, 1.41 nmol, total radioactivity, Biodistribution: Heart, Mouse #7; single tracer; dual xenograft; 24.2 h p.i.; 1.41 nmol
parameter: tissue uptake at 24.2 h (%ID/g)
Answers are plain numbers, in %ID/g.

-- ask Item CC(C)C[C@H](NC(=O)C[C@H](O)[C@H](CC(C)C)NC(=O)[C@H](Cc1c[nH]cn1)NC(=O)CNC(=O)[C@@H](NC(=O)[C@H](C)NC(=O)[C@H](Cc1c[nH]c2ccccc12)NC(=O)[C@H](CCC(N)=O)NC(=O)[C@@H](Cc1ccccc1)NC(=O)CN1CCC(NC(=O)CN2CCN(CC(=O)O)CCN(CC(=O)O)CCN(CC(=O)O)CC2)CC1)C(C)C)C(N)=O [[^111In]In-RM2, metal not drawn] has what recorded tissue uptake at 24.2 h?
-- reply 0.02

###

- assay-procedure: Biodistribution, CHO-K1-GRPR + CHO-K1-PSMA dual xenograft mice
- run-parameters: female, NOD SCID, mouse, stomach (empty), intravenous, 1 nmol, total radioactivity, Biodistribution: Stomach (empty), Mouse #8; dual tracer; dual xenograft; 25.8 h p.i.; 1.00 nmol
parameter: tissue uptake at 25.8 h (%ID/g)
Give bare numbers, in %ID/g.

-- ask Look up tissue uptake at 25.8 h for this compound: CC(C)C[C@H](NC(=O)C[C@H](O)[C@H](CC(C)C)NC(=O)[C@H](Cc1c[nH]cn1)NC(=O)CNC(=O)[C@@H](NC(=O)[C@H](C)NC(=O)[C@H](Cc1c[nH]c2ccccc12)NC(=O)[C@H](CCC(N)=O)NC(=O)[C@@H](Cc1ccccc1)NC(=O)CN1CCC(NC(=O)CN2CCN(CC(=O)O)CCN(CC(=O)O)CCN(CC(=O)O)CC2)CC1)C(C)C)C(N)=O [[^111In]In-RM2, metal not drawn]
-- reply 0.04

###

- assay-procedure: Biodistribution, PC-3 xenograft mice
- Assay type: in vivo, NOD SCID mice
- run-parameters: female, NOD SCID, muscle, intravenous, total radioactivity; Mouse #3; single tracer; PC-3 xenograft; 4 h p.i.; 1.49 nmol; read-out: Biodistribution: Muscle
parameter: tissue uptake at 4 h
The reply must contain the numeric value and, after it, the unit.

-- ask Field request: tissue uptake at 4 h | item: CC(C)C[C@H](NC(=O)C[C@H](O)[C@H](CC(C)C)NC(=O)[C@H](Cc1c[nH]cn1)NC(=O)CNC(=O)[C@@H](NC(=O)[C@H](C)NC(=O)[C@H](Cc1c[nH]c2ccccc12)NC(=O)[C@H](CCC(N)=O)NC(=O)[C@@H](Cc1ccccc1)NC(=O)CN1CCC(NC(=O)CN2CCN(CC(=O)O)CCN(CC(=O)O)CCN(CC(=O)O)CC2)CC1)C(C)C)C(N)=O [[^111In]In-RM2, metal not drawn]
-- reply 0.01 %ID/g

###

- assay-procedure: Biodistribution, CHO-K1-GRPR + CHO-K1-PSMA dual xenograft mice
- run-parameters: female, NOD SCID, mouse, CHO-K1-PSMA tumor, intravenous, 1 nmol, total radioactivity, Biodistribution: CHO-K1-PSMA Tumor, Mouse #8; dual tracer; dual xenograft; 25.8 h p.i.; 1.00 nmol
parameter: tissue uptake at 25.8 h
Give me the value, and tack the unit on after it.

-- ask Fill in the blank: the reported tissue uptake at 25.8 h of CC(C)C[C@H](NC(=O)C[C@H](O)[C@H](CC(C)C)NC(=O)[C@H](Cc1c[nH]cn1)NC(=O)CNC(=O)[C@@H](NC(=O)[C@H](C)NC(=O)[C@H](Cc1c[nH]c2ccccc12)NC(=O)[C@H](CCC(N)=O)NC(=O)[C@@H](Cc1ccccc1)NC(=O)CN1CCC(NC(=O)CN2CCN(CC(=O)O)CCN(CC(=O)O)CCN(CC(=O)O)CC2)CC1)C(C)C)C(N)=O [[^111In]In-RM2, metal not drawn] is ____.
-- reply 0.08 %ID/g

###

- assay-procedure: Biodistribution, CHO-K1-GRPR + CHO-K1-PSMA dual xenograft mice
- run-parameters: female, NOD SCID, mouse, muscle, intravenous, 1 nmol, total radioactivity, Biodistribution: Muscle, Mouse #8; dual tracer; dual xenograft; 25.8 h p.i.; 1.00 nmol
parameter: tissue uptake at 25.8 h (%ID/g)
Answers are plain numbers, in %ID/g.

-- ask Param item = CC(C)C[C@H](NC(=O)C[C@H](O)[C@H](CC(C)C)NC(=O)[C@H](Cc1c[nH]cn1)NC(=O)CNC(=O)[C@@H](NC(=O)[C@H](C)NC(=O)[C@H](Cc1c[nH]c2ccccc12)NC(=O)[C@H](CCC(N)=O)NC(=O)[C@@H](Cc1ccccc1)NC(=O)CN1CCC(NC(=O)CN2CCN(CC(=O)O)CCN(CC(=O)O)CCN(CC(=O)O)CC2)CC1)C(C)C)C(N)=O [[^111In]In-RM2, metal not drawn] ; retrieve measured tissue uptake at 25.8 h.
-- reply 0.01

###

- assay-procedure: Biodistribution, PC-3 xenograft mice
- Format: in vivo, NOD SCID mice
- run-parameters: female, NOD SCID, bone, intravenous, total radioactivity; Mouse #1; single tracer; PC-3 xenograft; 25.1 h p.i.; 1.34 nmol; read-out: Biodistribution: Bone
- Description: Tumor growth and body weight were monitored daily. […] 3.6.1 Biodistribution studies xenograft-bearing female NOD SCID mice. […]
parameter: tissue uptake at 25.1 h (%ID/g)
Give bare numbers, in %ID/g.

-- ask I am curious: what tissue uptake at 25.1 h value has been reported for CC(C)C[C@H](NC(=O)C[C@H](O)[C@H](CC(C)C)NC(=O)[C@H](Cc1c[nH]cn1)NC(=O)CNC(=O)[C@@H](NC(=O)[C@H](C)NC(=O)[C@H](Cc1c[nH]c2ccccc12)NC(=O)[C@H](CCC(N)=O)NC(=O)[C@@H](Cc1ccccc1)NC(=O)CN1CCC(NC(=O)CN2CCN(CC(=O)O)CCN(CC(=O)O)CCN(CC(=O)O)CC2)CC1)C(C)C)C(N)=O [[^111In]In-RM2, metal not drawn] ?
-- reply 0.07

###

- assay-procedure: Biodistribution, CHO-K1-GRPR + CHO-K1-PSMA dual xenograft mice
- run-parameters: female, NOD SCID, mouse, colon (empty), intravenous, 1 nmol, total radioactivity, Biodistribution: Colon (empty), Mouse #8; dual tracer; dual xenograft; 25.8 h p.i.; 1.00 nmol
parameter: tissue uptake at 25.8 h (%ID/g)
Answers are plain numbers, in %ID/g.

-- ask What value of measured tissue uptake at 25.8 h is listed for CC(C)C[C@H](NC(=O)C[C@H](O)[C@H](CC(C)C)NC(=O)[C@H](Cc1c[nH]cn1)NC(=O)CNC(=O)[C@@H](NC(=O)[C@H](C)NC(=O)[C@H](Cc1c[nH]c2ccccc12)NC(=O)[C@H](CCC(N)=O)NC(=O)[C@@H](Cc1ccccc1)NC(=O)CN1CCC(NC(=O)CN2CCN(CC(=O)O)CCN(CC(=O)O)CCN(CC(=O)O)CC2)CC1)C(C)C)C(N)=O [[^111In]In-RM2, metal not drawn] ?
-- reply 0.04
